assay.summary: physchem
experimental.setup: peg 1000/ba/h2o, organic solvent or mixture, Concentration Obtained
assay.endpoint: solubility thermodynamic (µg/mL)
Give bare numbers, in µg/mL.

Qu. Identify measured solubility thermodynamic associated with CC[S+]([O-])Cc1ccc2c(c1)c1c3c(c4c5ccccc5n5c4c1n2C1CC(O)(C(=O)OC)C5(C)O1)CNC3=O (stereo not shown) [Compound C]
Ans. 800
